run_description: Brain distribution in rats (Kp,brain, Kp,uu,brain)
conditions_used: SD, rat, in vivo, iv, 1 mg/kg
For each entry below, report its Kp uu value.
// no unit string in output, number only

QUERY: # Kp uu lookup, item NC(=O)C[S+]([O-])C(c1ccccc1)c1ccccc1 (centres unmarked) [Modafinil]
RESULT: 0.547

QUERY: Follow-up entry: COc1ccc2c(c1)[C@]13CCCC[C@@H]1[C@H](C2)N(C)CC3 [Dextromethorphan]
RESULT: 0.825

====

run_description: Bidirectional transport across LLC-PK1 MOCK monolayer (Transwell)
conditions_used: pig, LLC-PK1, pH 7.4
For each entry below, report its efflux ratio at 2 h, 2 µM value.
// no unit string in output, number only

QUERY: # efflux ratio at 2 h, 2 µM lookup, item Cc1ncc2n1-c1ccc(Cl)cc1C(c1ccccc1F)=NC2 [Midazolam]
RESULT: 1.32

QUERY: Follow-up entry: COc1ccc2c(c1)[C@]13CCCC[C@@H]1[C@H](C2)N(C)CC3 [Dextromethorphan]
RESULT: 0.73

QUERY: Follow-up entry: CC(C)NCC(O)COc1cccc2ccccc12 (stereo not drawn) [Propranolol]
RESULT: 0.88

QUERY: Follow-up entry: NC(=O)C[S+]([O-])C(c1ccccc1)c1ccccc1 (stereo not drawn) [Modafinil]
RESULT: 0.78

QUERY: Follow-up entry: COc1cccc(C2(O)CCCCC2CN(C)C)c1 (stereo not drawn) [Tramadol]
RESULT: 0.85

QUERY: Follow-up entry: CC[C@]1(O)C[C@@H]2CN(CCc3c([nH]c4ccccc34)[C@@](C(=O)OC)(c3cc4c(cc3OC)N(C)[C@H]3[C@@](O)(C(=O)OC)[C@H](OC(C)=O)[C@]5(CC)C=CCN6CC[C@]43[C@@H]65)C2)C1 [Vinblastine]
RESULT: 0.96

QUERY: Follow-up entry: COc1ccc2c(c1)c(CC(=O)O)c(C)n2C(=O)c1ccc(Cl)cc1 [Indomethacin]
RESULT: 1.18

QUERY: Follow-up entry: COCCOC(=O)C1=C(C)NC(C)=C(C(=O)OC(C)C)C1c1cccc([N+](=O)[O-])c1 (stereo not drawn) [Nimodipine]
RESULT: 1.37

QUERY: Follow-up entry: COc1ccc2[nH]cc(CCNC(C)=O)c2c1 [Melatonin]
RESULT: 0.92

====

run_description: Protein binding in rat plasma (equilibrium dialysis)
quantity_measured: fraction unbound at 6 h, 5 µM
// no unit string in output, number only

QUERY: # fraction unbound at 6 h, 5 µM lookup, item COc1ccc2c(c1)[C@]13CCCC[C@@H]1[C@H](C2)N(C)CC3
RESULT: 0.35

====

run_description: Bidirectional transport across LLC-PK1 MOCK monolayer (Transwell);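 further: compound quantified by LC-MS/MS in donor and receiver wells, efflux ratio as B-A over A-B Papp, recovery relative to initial donor amount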
conditions_used: pig, LLC-PK1, pH 7.4
quantity_measured: Papp A→B at 2 h, 2 µM (×10⁻⁶ cm/s)
The figure you give is taken to be in ×10⁻⁶ cm/s; do not add the unit.

QUERY: # Papp A→B at 2 h, 2 µM lookup, item Cc1ncc2n1-c1ccc(Cl)cc1C(c1ccccc1F)=NC2 [Midazolam]
RESULT: 24.7

QUERY: Follow-up entry: NC(=O)C[S+]([O-])C(c1ccccc1)c1ccccc1 (centres unmarked) [Modafinil]
RESULT: 20.2

QUERY: Follow-up entry: COc1ccc2c(c1)[C@]13CCCC[C@@H]1[C@H](C2)N(C)CC3 [Dextromethorphan]
RESULT: 35.5

QUERY: Follow-up entry: COc1cccc(C2(O)CCCCC2CN(C)C)c1 (centres unmarked) [Tramadol]
RESULT: 27.3

QUERY: Follow-up entry: COc1ccc2cc1Oc1ccc(cc1)C[C@H]1c3cc(c(OC)cc3CCN1C)Oc1c(OC)c(OC)cc3c1[C@H](C2)N(C)CC3 [Tetrandrine]
RESULT: 3.15
